Listed below: inhibition values for each entry.
target: Histamine H3 receptor (Homo sapiens); assay: Displacement of [3H]Nalpha-methylhistamine from human H3 receptor at 1 uM relative to control
Sequence (Q9Y5N1 whole entry): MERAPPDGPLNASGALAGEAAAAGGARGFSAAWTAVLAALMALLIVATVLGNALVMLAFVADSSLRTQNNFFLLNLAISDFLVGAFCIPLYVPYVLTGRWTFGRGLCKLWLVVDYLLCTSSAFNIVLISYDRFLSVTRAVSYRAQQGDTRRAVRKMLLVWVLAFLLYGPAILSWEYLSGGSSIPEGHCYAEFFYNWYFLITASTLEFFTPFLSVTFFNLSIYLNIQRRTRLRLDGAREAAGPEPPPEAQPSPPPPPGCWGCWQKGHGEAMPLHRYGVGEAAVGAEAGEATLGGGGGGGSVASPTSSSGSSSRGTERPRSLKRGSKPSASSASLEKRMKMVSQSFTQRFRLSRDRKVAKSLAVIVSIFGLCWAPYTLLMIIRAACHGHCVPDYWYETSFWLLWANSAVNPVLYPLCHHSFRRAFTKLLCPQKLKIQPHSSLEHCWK

Request: So what's the measured inhibition for this one? `Clc1nc(N2CCC(N3CCCCC3)CC2)c2ccn(Cc3ccccc3)c2n1`
Response: 96%

Request: So what's the measured inhibition for this one? `Clc1nc(NCCN2CCOCC2)c2ccn(Cc3ccc4ccccc4c3)c2n1`
Response: < 80%

Request: So what's the measured inhibition for this one? `Clc1nc(N2CCC(N3CCCCC3)CC2)c2ccn(Cc3cccc4ccccc34)c2n1`
Response: 95%

Request: So what's the measured inhibition for this one? `Clc1nc(N2CCC(N3CCOCC3)CC2)c2ccn(Cc3ccccc3)c2n1`
Response: < 80%

Request: So what's the measured inhibition for this one? `Clc1nc(NCCN2CCOCC2)c2ccn(Cc3cccc4ccccc34)c2n1`
Response: < 80%

Continuing:
Request: So what's the measured inhibition for this one? `Clc1nc(N2CCC(N3CCOCC3)CC2)c2ccn(Cc3cccc4ccccc34)c2n1`
Response: < 80%

Request: So what's the measured inhibition for this one? `CN1CCN(c2nc(Cl)nc3c2ccn3Cc2ccccc2)CC1`
Response: < 80%

Request: So what's the measured inhibition for this one? `Clc1nc(N2CCC(N3CCOCC3)CC2)c2ccn(Cc3ccc4ccccc4c3)c2n1`
Response: < 80%

Request: So what's the measured inhibition for this one? `CN1CCN(c2nc(Cl)nc3c2ccn3Cc2cccc3ccccc23)CC1`
Response: < 80%

Request: So what's the measured inhibition for this one? `Clc1nc(NCCN2CCOCC2)c2ccn(Cc3ccccc3)c2n1`
Response: < 80%

Request: So what's the measured inhibition for this one? `Clc1nc(N2CCC(N3CCCCC3)CC2)c2ccn(Cc3ccc4ccccc4c3)c2n1`
Response: 95%

Request: So what's the measured inhibition for this one? `CN1CCN(c2nc(Cl)nc3c2ccn3Cc2ccc3ccccc3c2)CC1`
Response: < 80%

----------
molecular target: Histamine H3 receptor (Homo sapiens)
ASSAY_ENDPOINT: Ki (nM)

P = Clc1nc(N2CCC(N3CCOCC3)CC2)c2ccn(Cc3ccccc3)c2n1
Q = Clc1nc(N2CCC(N3CCCCC3)CC2)c2ccn(Cc3ccccc3)c2n1
Request: Which one would you say has the larger Ki value: P , or Q ? Refer to your chosen item by its label in the answer.
Response: P
(P: 1070 nM, Q: 490 nM)
